Test: Etching (dissolution) of deposited layers by IPA/water mixed solvent
Format: physicochemical
Details: deposited film, IPA 60 wt %
Description: In the present invention, a larger etching rate means a higher dissolution rate. In addition, a larger etching rate means a higher solubility of a layer having a material of interest in the solvent (polar solvent). […] When the etching rates of the respective layers are calculated with their etching conditions made identical to each other, the etching rate of the layer A is 0.008 nm/sec but the etching rate of the layer B is 0.87 nm/sec, that is, a ratio of the latter to the former is about 100. […]
Outcome measure: etching rate (nm/s)
Number in nm/s, nothing else.

These recorded examples may help you get a feel for the data.
[
  {
    "Compound": "CC1(C)c2ccccc2-c2ccc(-c3ccc4ccc5ccc(-c6ccc7c(c6)C(C)(C)c6ccccc6-7)nc5c4n3)cc21",
    "etching rate [nm/s]": 0.87
  },
  {
    "Compound": "c1ccc(-c2cc(-c3ccccc3)cc(-c3cccc(-c4cccc(-c5ccc6c7ccccc7c7ccccc7c6c5)c4)c3)c2)cc1",
    "etching rate [nm/s]": 1.3
  },
  {
    "Compound": "CC1(C)c2cc(-c3ccc4ccc5cccc6ccc3c4c56)ccc2-c2ccc(-c3ccc4ccc5cccc6ccc3c4c56)cc21",
    "etching rate [nm/s]": 0.008
  }
]

As a next step, examine the compound that follows.
Asked: Recorded etching rate for O=C1c2ccccc2OC2C=CC(c3cccc(-c4cccc(-c5cc(-c6cccc(-c7ccccc7)c6)cc(-c6cccc(C7C=CC=CC7)c6)c5)c4)c3)=CC12 (stereo not shown) , please?
Given back: 1.5
